All figures here come from ChEMBL document CHEMBL5136968.

Listing: pKi of selected compounds
experiment: Displacement of [3H]-epibatidine from Aplysia californica Acetylcholine-binding protein measured after 1 hr by liquid scintillation counter
Positions of bridges follow the written chain, without caps; N, C: chain ends. Non-standard residues stand in square brackets, D forms with d. Residues, ends and D or L forms follow the SMILES beside them. sY = N[C@@H](Cc1ccc(OS(=O)(=O)O)cc1)C(=O)O
endpoint: pKi

compound | endpoint | result
C[C@@H]1NC(=O)[C@H](C)NC(=O)[C@@H]2CSSC[C@H](NC(=O)CNC(=O)CN)C(=O)N[C@@H](CSSC[C@@H](C(=O)O)NC(=O)[C@H](Cc3ccc(OS(=O)(=O)O)cc3)NC(=O)[C@H](CC(=O)O)NC(=O)[C@H](CCC(N)=O)NC(=O)[C@H](CC(N)=O)NC(=O)[C@H](CC(N)=O)NC1=O)C(=O)N[C@@H](CO)C(=O)N[C@@H](Cc1cnc[nH]1)C(=O)N1CCC[C@H]1C(=O)N[C@@H](C)C(=O)N2 | pKi | 8.66
CSCC[C@@H]1NC(=O)[C@H](CC(N)=O)NC(=O)[C@@H]2CSSC[C@H](NC(=O)CN)C(=O)N[C@@H](CSSC[C@@H](C(=O)O)NC(=O)[C@H](Cc3ccc(O)cc3)NC(=O)[C@H](CC(=O)O)NC(=O)[C@@H]3CCCN3C(=O)[C@H](CC(N)=O)NC(=O)[C@H](CC(N)=O)NC1=O)C(=O)N[C@@H](CO)C(=O)N[C@@H](CC(=O)O)C(=O)N1CCC[C@H]1C(=O)N[C@@H](CCCNC(=N)N)C(=O)N2 (H-GCCSDPRCNMNNPDYC-OH; disulfide 2-8, 3-16) | pKi | 6
CSCC[C@@H]1NC(=O)[C@H](CC(N)=O)NC(=O)[C@@H]2CSSC[C@H](NC(=O)CN)C(=O)N[C@@H](CSSC[C@@H](C(N)=O)NC(=O)[C@H](Cc3ccc(OS(=O)(=O)O)cc3)NC(=O)[C@H](CC(=O)O)NC(=O)[C@@H]3CCCN3C(=O)[C@H](CC(N)=O)NC(=O)[C@H](CC(N)=O)NC1=O)C(=O)N[C@@H](CO)C(=O)N[C@@H](CC(=O)O)C(=O)N1CCC[C@H]1C(=O)N[C@@H](CCCNC(=N)N)C(=O)N2 (H-GCCSDPRCNMNNPD[sY]C-NH2; disulfide 2-8, 3-16) | pKi | 8.38
CSCC[C@@H]1NC(=O)[C@H](CC(N)=O)NC(=O)[C@@H]2CSSC[C@H](NC(=O)CN)C(=O)N[C@@H](CSSC[C@@H](C(N)=O)NC(=O)[C@H](Cc3ccc(O)cc3)NC(=O)[C@H](CC(=O)O)NC(=O)[C@@H]3CCCN3C(=O)[C@H](CC(N)=O)NC(=O)[C@H](CC(N)=O)NC1=O)C(=O)N[C@@H](CO)C(=O)N[C@@H](CC(=O)O)C(=O)N1CCC[C@H]1C(=O)N[C@@H](CCCNC(=N)N)C(=O)N2 (H-GCCSDPRCNMNNPDYC-NH2; disulfide 2-8, 3-16) | pKi | 7.57

====

test: Displacement of [3H]-epibatidine from Aplysia californica Acetylcholine-binding protein measured after 1 hr by liquid scintillation counter
Positions of bridges follow the written chain, without caps; N, C: chain ends. Non-standard residues stand in square brackets, D forms with d. Residues, ends and D or L forms follow the SMILES beside them. sY = N[C@@H](Cc1ccc(OS(=O)(=O)O)cc1)C(=O)O

compound | pKi
CSCC[C@@H]1NC(=O)[C@H](CC(N)=O)NC(=O)[C@@H]2CSSC[C@H](NC(=O)CN)C(=O)N[C@@H](CSSC[C@@H](C(=O)O)NC(=O)[C@H](Cc3ccc(OS(=O)(=O)O)cc3)NC(=O)[C@H](CC(=O)O)NC(=O)[C@@H]3CCCN3C(=O)[C@H](CC(N)=O)NC(=O)[C@H](CC(N)=O)NC1=O)C(=O)N[C@@H](CO)C(=O)N[C@@H](CC(=O)O)C(=O)N1CCC[C@H]1C(=O)N[C@@H](CCCNC(=N)N)C(=O)N2 (H-GCCSDPRCNMNNPD[sY]C-OH; disulfide 2-8, 3-16) | 6.5

====

biological target: Acetylcholine-binding protein (Lymnaea stagnalis, UniProt P58154)
Sequence (P58154 whole entry): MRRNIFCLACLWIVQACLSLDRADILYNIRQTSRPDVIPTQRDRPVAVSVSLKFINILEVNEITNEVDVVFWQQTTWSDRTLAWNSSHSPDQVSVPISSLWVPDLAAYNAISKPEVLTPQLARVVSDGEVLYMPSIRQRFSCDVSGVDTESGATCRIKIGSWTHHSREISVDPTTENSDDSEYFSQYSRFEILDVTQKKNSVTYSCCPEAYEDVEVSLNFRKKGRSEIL
Reported Ki values for a set of molecules

molecule | unit abbreviation | Ki
C[C@@H]1NC(=O)[C@H](C)NC(=O)[C@@H]2CSSC[C@H](NC(=O)CNC(=O)CN)C(=O)N[C@@H](CSSC[C@@H](C(N)=O)NC(=O)[C@H](Cc3ccc(OS(=O)(=O)O)cc3)NC(=O)[C@H](CC(=O)O)NC(=O)[C@H](CCC(N)=O)NC(=O)[C@H](CC(N)=O)NC(=O)[C@H](CC(N)=O)NC1=O)C(=O)N[C@@H](CO)C(=O)N[C@@H](Cc1cnc[nH]1)C(=O)N1CCC[C@H]1C(=O)N[C@@H](C)C(=O)N2 | µM | 5.37
C[C@@H]1NC(=O)[C@H](C)NC(=O)[C@@H]2CSSC[C@H](NC(=O)CNC(=O)CN)C(=O)N[C@@H](CSSC[C@@H](C(N)=O)NC(=O)[C@H](Cc3ccc(O)cc3)NC(=O)[C@H](CC(=O)O)NC(=O)[C@H](CCC(N)=O)NC(=O)[C@H](CC(N)=O)NC(=O)[C@H](CC(N)=O)NC1=O)C(=O)N[C@@H](CO)C(=O)N[C@@H](Cc1cnc[nH]1)C(=O)N1CCC[C@H]1C(=O)N[C@@H](C)C(=O)N2 | µM | 24.5

====

assay: Displacement of [3H]-epibatidine from Aplysia californica Acetylcholine-binding protein measured after 1 hr by liquid scintillation counter

molecule | pKi
C[C@@H]1NC(=O)[C@H](C)NC(=O)[C@@H]2CSSC[C@H](NC(=O)CNC(=O)CN)C(=O)N[C@@H](CSSC[C@@H](C(=O)O)NC(=O)[C@H](Cc3ccc(O)cc3)NC(=O)[C@H](CC(=O)O)NC(=O)[C@H](CCC(N)=O)NC(=O)[C@H](CC(N)=O)NC(=O)[C@H](CC(N)=O)NC1=O)C(=O)N[C@@H](CO)C(=O)N[C@@H](Cc1cnc[nH]1)C(=O)N1CCC[C@H]1C(=O)N[C@@H](C)C(=O)N2 | 8
